Molecular target: GHS-R (Homo sapiens)
Assay: GHS-R antagonist activity (Ki) in a cell based assay
endpoint: Ki

Task item: Form: Entry = CCN(CC)CCCS(=O)(=O)N[C@H](C)c1nc(Cc2ccc(Br)cc2)no1 [Compound 147] | System = GHS-R (Homo sapiens) | Ki = ____
Reply: 100 to 500 nM

Task item: Form: Entry = CCN(CC)CCCS(=O)(=O)N[C@H](CCc1ccccc1)c1nc(-c2ccccc2C)n[nH]1 [Compound 104] | System = GHS-R (Homo sapiens) | Ki = ____
Reply: < 100 nM

Task item: Form: Entry = CCN(CC)CCCS(=O)(=O)N1CCC[C@@H]1c1nc(Cc2ccc(Br)cc2)no1 [Compound 145] | System = GHS-R (Homo sapiens) | Ki = ____
Reply: 100 to 500 nM

Task item: Form: Entry = CCN(CC)CCCS(=O)(=O)N[C@H](CCc1ccccc1)c1nc(Cc2cc(F)cc(F)c2)n[nH]1 [Compound 132] | System = GHS-R (Homo sapiens) | Ki = ____
Reply: < 100 nM

Task item: Form: Entry = CCN(CC)CCCS(=O)(=O)N[C@H](CCc1ccccc1)c1nc(Cc2cccc(F)c2)no1 [Compound 62] | System = GHS-R (Homo sapiens) | Ki = ____
Reply: < 100 nM

Task item: Form: Entry = CCN(CC)CCCS(=O)(=O)N[C@H](CCc1ccccc1)c1nc(-c2ccc(N(C)C)cc2)n[nH]1 [Compound 110] | System = GHS-R (Homo sapiens) | Ki = ____
Reply: ≥ 1000 nM

Task item: Form: Entry = CCN(CC)CCCS(=O)(=O)N[C@H](CCc1ccccc1)c1nc(-c2ccccc2)n[nH]1 [Compound 23] | System = GHS-R (Homo sapiens) | Ki = ____
Reply: < 100 nM

Task item: Form: Entry = CCN(CC)CCCS(=O)(=O)NC(C)(C)c1nc(Cc2ccc(Br)cc2)no1 [Compound 154] | System = GHS-R (Homo sapiens) | Ki = ____
Reply: < 100 nM

----------
Molecular target: GHS-R (Homo sapiens, UniProt Q92847)
Sequence (Q92847 whole entry, species assumed): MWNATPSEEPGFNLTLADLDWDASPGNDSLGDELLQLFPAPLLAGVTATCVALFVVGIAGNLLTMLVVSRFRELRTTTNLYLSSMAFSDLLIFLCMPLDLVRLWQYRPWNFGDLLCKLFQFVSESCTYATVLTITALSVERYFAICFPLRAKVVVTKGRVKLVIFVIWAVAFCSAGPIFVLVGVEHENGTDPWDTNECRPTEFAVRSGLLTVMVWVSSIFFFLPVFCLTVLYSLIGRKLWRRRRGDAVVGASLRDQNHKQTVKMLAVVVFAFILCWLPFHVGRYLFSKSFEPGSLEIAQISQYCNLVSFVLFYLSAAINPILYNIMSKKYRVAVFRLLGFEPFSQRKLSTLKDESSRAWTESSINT
Assay: GHS-R antagonist activity (Ki) in a cell based assay
pKi: −log10 of the molar value.
endpoint: pKi

Task item: I have this compound here, CCN(CC)CCCS(=O)(=O)N[C@H](CCc1ccccc1)c1nc(-c2cccc(Cl)c2)n[nH]1 [Compound 70] , and I need its recorded pKi.
Reply: > 7.00

Task item: I have this compound here, CCN(CC)CCCS(=O)(=O)N[C@H](CCc1ccccc1)c1nc(-c2ncccc2C)no1 [Compound 9] , and I need its recorded pKi.
Reply: 6.30 to 7.00

Task item: I have this compound here, CCN(CC)CCCS(=O)(=O)N[C@H](CCc1ccccc1)c1nc(-c2cccc(O)c2)n[nH]1 [Compound 121] , and I need its recorded pKi.
Reply: > 7.00

Task item: I have this compound here, CCN(CC)CCCS(=O)(=O)N[C@H](CCc1ccccc1)c1nc(-c2ccc3ncsc3c2)n[nH]1 [Compound 44] , and I need its recorded pKi.
Reply: > 7.00

Task item: I have this compound here, CCN(CC)CCS(=O)(=O)N[C@H](CCc1ccccc1)c1nc(-c2ccccc2)n[nH]1 [Compound 28] , and I need its recorded pKi.
Reply: > 7.00

Task item: I have this compound here, CCN(CC)CCCS(=O)(=O)N[C@H](CC(N)=O)c1nc(Cc2ccc(Br)cc2)no1 [Compound 102] , and I need its recorded pKi.
Reply: 6.30 to 7.00

Task item: I have this compound here, CCN(CC)CCCS(=O)(=O)N[C@H](CC(C)C)c1nc(-c2ccc(OC)cc2)n[nH]1 [Compound 160] , and I need its recorded pKi.
Reply: 6.30 to 7.00

Task item: I have this compound here, CCN(CC)CCCS(=O)(=O)N[C@H](CCc1ccccc1)c1nc(Cc2nc(C)cs2)n[nH]1 [Compound 133] , and I need its recorded pKi.
Reply: > 7.00

Task item: I have this compound here, CCN(CC)CCCS(=O)(=O)N[C@H](CCc1ccccc1)c1nc(CCOC)no1 [Compound 60] , and I need its recorded pKi.
Reply: 6.00 to 6.30

Task item: I have this compound here, CCN(CC)CCCS(=O)(=O)N[C@H](COCc1ccccc1)c1nc(-c2ccncc2)no1 [Compound 51] , and I need its recorded pKi.
Reply: ≤ 6.00

Task item: I have this compound here, CCN(CC)CCCS(=O)(=O)N[C@H](CCc1ccccc1)c1nc(Cc2c(Cl)cccc2Cl)no1 [Compound 73] , and I need its recorded pKi.
Reply: > 7.00

Task item: I have this compound here, CCN(CC)CCCS(=O)(=O)N[C@H](CCc1ccccc1)c1nc(-c2cccc(Cl)c2Cl)n[nH]1 [Compound 3] , and I need its recorded pKi.
Reply: > 7.00

Task item: I have this compound here, CCN(CC)CCCS(=O)(=O)N[C@H](CCc1ccccc1)c1nc(Cc2ccsc2)n[nH]1 [Compound 122] , and I need its recorded pKi.
Reply: > 7.00

Task item: I have this compound here, CCN(CC)CCCS(=O)(=O)N[C@H](CCc1ccccc1)c1nc(-c2cnccc2C)no1 [Compound 83] , and I need its recorded pKi.
Reply: 6.30 to 7.00

Task item: I have this compound here, CCN(CC)CCCS(=O)(=O)N[C@H](C)c1nc(-c2ccc(OC)cc2)no1 [Compound 152] , and I need its recorded pKi.
Reply: 6.30 to 7.00
